Value source: patent US10662218B2

assay: physchem; settings: pH 7.4, aqueous buffer, kinetic from dmso stock, Solubility (μM) Mean, Table 6-B; PBS (pH 7.4), test concentration 100 μM (1% of DMSO), shaken (1000 rpm) 1 h at room temperature, n = 2
experimentalEndpoint: solubility (µM)
Answers are plain numbers, in µM.

Sample records with solubility:
Qu. Item under review: CC1=C(O)C(=O)C=C2C1=CC=C1[C@@]2(C)CC[C@@]2(C)[C@@H]3C[C@](C)(C(=O)N4CC(O)C4)CC[C@]3(C)CC[C@]12C . Reported solubility?
Ans. 0.54

Qu. Let us now turn to CC1=C(O)C(=O)C=C2C1=CC=C1[C@@]2(C)CC[C@@]2(C)[C@@H]3C[C@](C)(C(N)=O)CC[C@]3(C)CC[C@]12C
Ans. 1.15

Okay, next one:
Qu. Item under review: CC1=C(O)C(=O)C=C2C1=CC=C1[C@@]2(C)CC[C@@]2(C)[C@@H]3C[C@](C)(C(=O)NC(CO)CO)CC[C@]3(C)CC[C@]12C . Reported solubility?
Ans. 1.61
